assay: Inhibition of Mycobacterium tuberculosis leucyl-tRNA synthetase assessed as reduction of [14C]-L-leucine ligation to tRNA incubated for 5 mins by scintillation counting method in presence of ATP
ENDPOINT LABEL: IC50

Study these solved cases before continuing.
COc1cc(/C=N\Nc2nc(-c3ccc(Br)cc3)cs2)cc([N+](=O)[O-])c1O	6 µM
O=[N+]([O-])c1cc(/C=N\Nc2nccs2)ccc1O	20 µM
COc1cc(/C=N/Nc2nccs2)cc(OC)c1O	> 20 µM
COc1cc(/C=N/Nc2nc(-c3ccccc3)c(-c3ccccc3)s2)cc(OC)c1O	> 20 µM
CCOC(=O)Cc1csc(N/N=C/c2cc(Br)c(O)c(Br)c2)n1	> 20 µM
COc1cc(/C=N/Nc2nccs2)ccc1O	> 20 µM

Please look at the items below and tell me IC50 for each one, in order.
1. COc1cc(/C=N/Nc2nc(-c3ccc(Cl)cc3Cl)cs2)ccc1O
2. O=C(O)c1ccc(/C=N/Nc2nccs2)cc1
3. O=[N+]([O-])c1cccc(-c2csc(N/N=C/c3cccc(O)c3)n2)c1
4. O=[N+]([O-])c1ccc(-c2csc(N/N=C\c3ccc(O)c([N+](=O)[O-])c3)n2)cc1

1: > 20 µM; 2: > 20 µM; 3: > 20 µM; 4: 20 µM

Lookup result for COc1cc(/C=N/Nc2nc(-c3cccc([N+](=O)[O-])c3)cs2)cc(Br)c1O ; measured IC50: > 20 µM

* * *

experiment: Cytotoxicity against mouse J774 cells assessed as cell viability at 80 ug/ml by MTT assay; assay type: cell-based; conditions: read-out: Activity
ENDPOINT LABEL: viability at 80 ug/ml (%)
Numbers only, in %.

COc1cc(/C=N\Nc2nc(-c3ccc(Br)cc3)cs2)cc([N+](=O)[O-])c1O	10

Kindly consider the entry below.
Lookup result for CO[C@H]1/C=C/O[C@@]2(C)Oc3c(C)c(O)c4c(O)c(c(/C=N/N5CCN(C)CC5)c(O)c4c3C2=O)NC(=O)/C(C)=C\C=C\[C@H](C)[C@H](O)[C@@H](C)[C@@H](O)[C@@H](C)[C@H](OC(C)=O)[C@@H]1C [RIFAMPIN] ; measured viability at 80 ug/ml: 73

* * *

Give measured IC50 for each item. Keep answers brief.
experiment: Inhibition of Mycobacterium tuberculosis leucyl-tRNA synthetase assessed as reduction of [14C]-L-leucine ligation to tRNA incubated for 5 mins by scintillation counting method in presence of ATP

Study these solved cases before continuing.
COc1cc(/C=N/Nc2nc(-c3cccc([N+](=O)[O-])c3)cs2)cc(OC)c1O	> 20 µM
COc1ccc(/C=N/Nc2nc(-c3ccccc3)c(-c3ccccc3)s2)cc1O	> 20 µM
COc1cc(/C=N/Nc2nc(C)c(C(C)=O)s2)cc(Br)c1O	> 20 µM
COc1cc(/C=N/Nc2nc(-c3ccc(Cl)cc3)cs2)cc(Br)c1O	4.54 µM

Lookup result for CC(/C=C1\SC(=S)N(CCC(=O)Nc2ccc(C(=O)O)c(O)c2)C1=O)=C\c1ccccc1 ; measured IC50: > 50 µM

* * *

assay: Inhibition of Mycobacterium tuberculosis leucyl-tRNA synthetase assessed as reduction of [14C]-L-leucine ligation to tRNA incubated for 5 mins by scintillation counting method in presence of ATP
Give measured IC50 for each item. Keep answers brief.

O=[N+]([O-])c1cccc(-c2csc(N/N=C/c3ccccc3O)n2)c1	> 20 µM
Cc1nc(N/N=C/c2ccc(O)cc2)sc1C	> 20 µM

Kindly consider the entry below.
Lookup result for CC(=O)c1sc(N/N=C/c2cc(Br)ccc2O)nc1C ; measured IC50: > 20 µM
